test system: OVCAR-8 ovarian; assay: NCI-60 one-dose screen, 48 h (100 = growth as untreated, 0 = no growth, -100 = all killed); settings: 10 µM unless noted
Compounds without any hit were thinned out: in the full panel of roughly 83,000, 20% have a hit.
MEASURED_PARAMETER: growth (%)

[[record]]
compound = "NC1CCN(c2nc(Nc3cccc(C(F)(F)F)c3)c3c(=O)[nH]ccc3n2)CC1"
measured_parameter = "growth"
scale_unit = "%"
reported_value = -44.7

[[record]]
compound = "Brc1c[n+](Cc2ccc3ccccc3c2)cn1Cc1ccc2ccccc2c1"
measured_parameter = "growth"
scale_unit = "%"
reported_value = 8.2

[[record]]
compound = "CN(C)CCNc1nc2ccccc2c2c(=O)c3cc(F)ccc3sc12"
measured_parameter = "growth"
scale_unit = "%"
reported_value = 40.2

[[record]]
compound = "NCCCNc1nc2ccccc2c2c(=O)c3cc(C(F)(F)F)ccc3sc12"
measured_parameter = "growth"
scale_unit = "%"
reported_value = 0.22

[[record]]
compound = "CNc1nc2c(s1)C(c1cc(F)ccc1F)CC(=O)N2 (stereo unspecified)"
measured_parameter = "growth"
scale_unit = "%"
reported_value = 91.3

[[record]]
compound = "COc1nc2ccc(C)cc2cc1-c1nc2c(cnn2-c2ccc(Br)cc2)c(=O)[nH]1"
measured_parameter = "growth"
scale_unit = "%"
reported_value = 40.7

[[record]]
compound = "COC(=O)c1ccc2[nH]c(O)c(C(=Nc3ccc(N(C)C(=O)CN4CCN(C)CC4)cc3)c3ccccc3)c2c1"
measured_parameter = "growth"
scale_unit = "%"
reported_value = 26

[[record]]
compound = "COc1ccc(C(=O)/C=C/c2sc(Cl)nc2Cl)cc1"
measured_parameter = "growth"
scale_unit = "%"
reported_value = 22.9

[[record]]
compound = "c1ccc(OCc2nnc(-c3ccc(Oc4ccccc4)cc3)o2)cc1"
measured_parameter = "growth"
scale_unit = "%"
reported_value = 99.1

[[record]]
compound = "CCOC(=O)c1cn2ncnc(Oc3ccc(NC(=O)NCCN4CCN(C)CC4)c(Cl)c3)c2c1C"
measured_parameter = "growth"
scale_unit = "%"
reported_value = 64.7

[[record]]
compound = "O=C1c2cccc3cccc(c23)C(=O)N1N1C(=O)c2cccc3c(NC4CCCCC4)ccc(c23)C1=O"
measured_parameter = "growth"
scale_unit = "%"
reported_value = 96.2

